# test_description: NCI Yeast Anticancer Drug Screen. Data for the sgs1 mgt1 strain (AID 161);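 also: 0% = growth of cultures given vehicle only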
# condition_details: S. cerevisiae sgs1 mgt1 strain, at 50.0 µM, stronger effect = higher value
About 79,000 compounds went through this panel and 15% of them were active in at least one assay; those are over-represented in the sample as a whole.
assay_readout: growth inhibition (%)
Give the value, in units of %, as a plain number.

Example entries and their recorded answers appear below.
1. Cc1cc(-c2ccccc2)nc2nc3ccccc3n12	12.4
2. O=C1NC(=O)N(c2ccc([N+](=O)[O-])cc2)C1=O	-2.95

For NNC(=S)NN/C=C(\C=Nc1ccccc1)[N+](=O)[O-] the molecule record lists growth inhibition as 65.5

Record CCN(CC)CCOc1ccc(-c2nc3cc(Cl)ccc3s2)cc1 . Reported growth inhibition: 91

Reported growth inhibition for C[N+]12CC3C4CC(C3C1)C2C4 (stereo unspecified) was 12.6

growth inhibition recorded for this molecule, CCC(=O)OCC(=O)c1ccc(-c2ccccc2)cc1 , is 3

Looking up CCCCCCCCCCCCCCCCCC(=O)OCC(COC(=O)CCCN)OC(=O)CCCN (stereo unspecified) , I found its growth inhibition recorded as 98

Form: molecule = O=C(Nc1ccccc1-c1nn(C(=S)Nc2ccccc2)c(=S)n(C(=S)Nc2ccccc2)c1=O)C(F)(F)F ; growth inhibition = 46.5

The value of growth inhibition measured for the molecule O=Nc1c(-c2cccc([N+](=O)[O-])c2)nc2cnccn12 turned out to be 95.7

Reported growth inhibition for CS/C(N)=N/NC(=O)CCC(=O)Nc1cc(Cl)c(Cl)cc1Cl was -10.2

Lab note: measured growth inhibition of CCC(c1cccc(O)c1)C(CC)c1cccc(O)c1 (stereo unspecified) was 39.4

----------
# test_description: NCI Yeast Anticancer Drug Screen. Data for the rad50 strain (AID 155);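 also: 0% = growth of vehicle-only cultures of the same strain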
# condition_details: S. cerevisiae rad50 strain growth inhibition; at 50.0 µM (retest, dose inferred, filed as 5.0)
This is part of a sample that, as a whole, favours compounds with a hit. Of some 79,000 tested, about 15% had one in any assay. Active and inactive are the calls of the source. No stated cut-off is given here; in the data, active means growth inhibition above about 70%; inactive means the rest.
Give your call using only these classes: active, inactive

Look over these answered cases.
1. C=C(c1ccccc1)[N+](=O)[O-]	active
2. C[N+](C)=c1ccc2nc3c(cc(NCCCNc4cc5oc6cc(=[N+](C)C)ccc-6nc5c5ccccc45)c4ccccc43)oc-2c1	active
3. CSC(SC)=C(C#N)C(=O)Nc1ccc(C)cc1	inactive
4. O=C(Nc1cccc(Br)c1)Oc1ccc(Cl)c2cccnc12	active
5. S=C(N/N=C/c1ccccn1)N1CCCCCC1	active

Can you look up the reported call for CCCCc1c2c(nc3c1CCc1cc4cc5c(nc4nc1-3)-c1nc3c(c(CCCC)c1CC5)CCC/C3=N/OC)/C(=N\OC)CCC2 for me?
active

Answer briefly: the call reported for N=C(N)c1ccc2oc3ccc(C(=N)N)cc3c(=O)c2c1 in this assay.
inactive

For OCc1ccc(OCc2ccccc2)c(OCc2ccccc2)c1 , what call appears in the results of this test?
inactive

Name the outcome recorded for CCOC(=O)c1c(Cl)c(CC)c(N=[N+]=[N-])n2c1nc1ccccc12 in the assay.
active

Recorded test call requested for CN(C)CCC(=O)/C=C/c1ccccc1
inactive

Please let me know the test result on file for Nc1nnc(-c2cc([N+](=O)[O-])cc([N+](=O)[O-])c2)o1 .
inactive

Source: PubChem BioAssay (NCI)
